Test system: SR leukemia
assay summary: NCI tumour cell line growth inhibition, 48 h
assay endpoint: TGI

INSERT INTO results (molecule, subject_of_test, assay_endpoint, observed_value) VALUES
  ('COC(=O)CSSCc1ccc([N+](=O)[O-])cc1', 'SR leukemia', 'TGI', '70.2 µM'),
  ('CO[C@H]1C[C@@H]2CC[C@@H](C)[C@@](O)(O2)C(=O)C(=O)N2CCCC[C@H]2C(=O)O[C@H]([C@H](C)C[C@@H]2CC[C@@H](OCCO)[C@H](OC)C2)CC(=O)[C@H](C)C=C(C)[C@@H](O)[C@@H](OC)C(=O)[C@H](C)C[C@H](C)/C=C/C=C/C=C1C', 'SR leukemia', 'TGI', '10.2 µM'),
  ('CC[C@H](C)[C@H](NC(=O)[C@H]1CCCCN1C)C(=O)N(C)[C@H](C[C@@H](OC(C)=O)c1nc(C(=O)N[C@@H](Cc2ccccc2)C[C@H](C)C(=O)O)cs1)C(C)C', 'SR leukemia', 'TGI', '> 16.5 µM'),
  ('CSC(=Nc1ccccc1)/N=C(\SCc1ccccc1)N(C)C', 'SR leukemia', 'TGI', '> 100 µM'),
  ('COc1cccc(/C=C2\COc3ccc(-c4ccccc4)cc3C2=O)c1', 'SR leukemia', 'TGI', '> 100 µM'),
  ('CC(=O)Oc1ccc(/C=C/C(=O)O[C@@H](C(=O)O)[C@@H](OC(=O)/C=C/c2ccc(OC(C)=O)c(OC(C)=O)c2)C(=O)O)cc1OC(C)=O', 'SR leukemia', 'TGI', '> 100 µM'),
  ('C/C(=C\c1csc(C)n1)[C@@H]1C[C@@H]2O[C@@H]2CCC[C@H](C)[C@H](O)[C@@H](C)C(=O)C(C)(C)[C@@H](O)CC(=O)O1', 'SR leukemia', 'TGI', '0.00609 µM'),
  ('O=S(=O)(c1cnccc1N1CCN(CCO)CC1)N1CCCC1', 'SR leukemia', 'TGI', '> 100 µM'),
  ('CC(=O)[O][Hg][c]1c(C)c(C)cc(C)c1C', 'SR leukemia', 'TGI', '2.21 µM'),
  ('CCSc1c2ccccc2c(-c2nc(F)nc(F)n2)n1CCc1ccccc1', 'SR leukemia', 'TGI', '> 100 µM'),
  ('Cc1ccc(NC(=O)C(=O)CC(=O)c2sc(Nc3c(C)cccc3C)nc2C)cc1C', 'SR leukemia', 'TGI', '> 100 µM'),
  ('CN1C(=O)C2(c3ccccc31)N(c1ccc(Cl)cc1)C(=O)C2(c1ccccc1)c1ccccc1 (configuration not stated)', 'SR leukemia', 'TGI', '> 100 µM'),
  ('C/C1=C\C=C(\C(C)C)CC/C(C(=O)O)=C\CC/C(C)=C/CC1', 'SR leukemia', 'TGI', '38.6 µM'),
  ('O=C(NNc1nc(-c2ccccc2)cs1)C(F)(F)F', 'SR leukemia', 'TGI', '> 100 µM'),
  ('O=C(Nc1nc2ccccc2s1)Nc1ccc([N+](=O)[O-])cc1Cl', 'SR leukemia', 'TGI', '> 100 µM'),
  ('COc1ccccc1C[C@@H]1OC2(C=CC(=O)C=C2)O[C@H]1Cc1ccccc1OC', 'SR leukemia', 'TGI', '13.1 µM'),
  ('Cn1c(N/N=C/c2ccccc2)nc(-c2ccc([N+](=O)[O-])cc2)c(C#N)c1=O', 'SR leukemia', 'TGI', '> 100 µM');
